- measurementTarget: Peroxisome proliferator-activated receptor gamma (Homo sapiens)
- Sequence (P37231 whole entry, the tested form may be a part): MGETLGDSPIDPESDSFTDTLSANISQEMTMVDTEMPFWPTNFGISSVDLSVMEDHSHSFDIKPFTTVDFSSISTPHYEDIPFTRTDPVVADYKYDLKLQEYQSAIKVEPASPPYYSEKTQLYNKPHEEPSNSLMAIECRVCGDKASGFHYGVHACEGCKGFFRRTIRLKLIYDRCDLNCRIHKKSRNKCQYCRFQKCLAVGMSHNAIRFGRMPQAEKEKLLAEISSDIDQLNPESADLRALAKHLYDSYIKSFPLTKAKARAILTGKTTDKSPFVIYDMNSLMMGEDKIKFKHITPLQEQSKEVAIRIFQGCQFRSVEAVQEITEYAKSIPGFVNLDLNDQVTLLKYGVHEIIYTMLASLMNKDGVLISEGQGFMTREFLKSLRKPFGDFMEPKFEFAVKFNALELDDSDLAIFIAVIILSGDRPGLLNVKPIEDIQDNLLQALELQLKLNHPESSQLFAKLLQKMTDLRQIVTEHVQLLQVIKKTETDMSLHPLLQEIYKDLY
- testProtocol: Displacement of fluormone pan-PPAR green from recombinant GST-tagged human PPAR-gamma ligand binding domain (E235 to Y505 residues) extracted from Escherichia coli BL21 (DE3) cells by TR-FRET assay
Below, each of the molecules is paired with its reported IC50 value.

molecule | IC50
COC(=O)c1ccc2c(c1)[Se]N=S2(C)=O (stereo unspecified) | > 50 µM
Cc1cc(C)cc(S2(=O)=N[Se]c3c(C)cc(C)cc32)c1 (stereo unspecified) | 38.2 µM
COc1cccc(S2(=O)=N[Se]c3ccc(OC)cc32)c1 (stereo unspecified) | 3.28 µM
Cc1ccc2c(c1)[Se]N=S2(C)=O (stereo unspecified) | > 50 µM
O=S1(c2ccc(-c3ccccc3)cc2)=N[Se]c2cc(-c3ccccc3)ccc21 (stereo unspecified) | 1.68 µM
CC(C)(C)c1ccc(S2(=O)=N[Se]c3cc(C(C)(C)C)ccc32)cc1 (stereo unspecified) | 1.24 µM
